# assay-text: AUC (0 to infinity) in mouse at 1 mg/kg, po measured at 5 to 1440 mins by LC-MS analysis
# Assay type: ADME, organism-based
# Parameters: dose 1 mg/kg, time 5-1440 min, route po
# experimental-setup: in vivo
quantity-measured: AUC(0-inf) (ng·h/mL)
Response body: numeric value in ng·h/mL, unit text excluded.

Complete the entry with AUC(0-inf) for CCc1ccc(N(C2CCC2)S(=O)(=O)c2ccc3c(c2)C(O)CC(C2CCOCC2)O3)cc1 (stereo unspecified)
298

====

Reported logD values for a set of compounds
# assay-text: Lipophilicity, log D of the compound at pH 7.4
# Type: physicochemical
# experimental-setup: buffer
Enter a number only.

Take a look at these entries with their results.
compound	logD
CC(C)CN(c1ccc(F)cc1F)S(=O)(=O)c1ccc2c(c1)C(O)CC(C1CCOCC1)O2 (stereo not given)	3.53
CCc1ccc(N(C2CCC2)S(=O)(=O)c2ccc3c(c2)C(O)CC(C2CCOCC2)O3)cc1 (stereo not given)	3.69
O=S(=O)(Nc1ccccc1C(F)(F)F)c1ccc2c(c1)C(O)CC(C1CCOCC1)O2 (stereo not given)	2.41
CC(C)CN(c1ccc(F)cc1)S(=O)(=O)c1ccc2c(c1)C(O)CC(C1CCOCC1)O2 (stereo not given)	3.39

Next compound, logD to be filled in.
Identify logD associated with the compound CCc1ccc(N(CC(C)C)S(=O)(=O)c2ccc3c(c2)CCC(C2CCOCC2)O3)cc1 (stereo not given)
5.38

====

# assay-text: Metabolic stability in human liver assessed as intrinsic clearance incubated for 5 to 30 mins by HPLC-MS/MS analysis
# Assay type: ADME, tissue-based
# experimental-setup: liver (preparation not stated), time 5-30 min, read-out: CLH
quantity-measured: CLint scaled (mL/min/kg)
Give a bare numeral; the unit mL/min/kg is implied.

Supply CLint scaled value. Item: CC(C)CN(c1ccc(C#N)cc1)S(=O)(=O)c1ccc2c(c1)C(O)CC(C1CCOCC1)O2 (stereo unspecified)
1520

Given the compound O=S(=O)(c1ccc2c(c1)C(O)CC(C1CCOCC1)O2)N1CCCC1c1ccccc1C(F)(F)F (stereo unspecified) , write its reported CLint scaled.
172

Look up and report measured CLint scaled for this entry: CC(C)CN(c1cc2ccccc2s1)S(=O)(=O)c1ccc2c(c1)C(O)CC(C1CCOCC1)O2 (stereo unspecified)
53.7

Quick one: give measured CLint scaled for CCc1ccc(N(C2CCC2)S(=O)(=O)c2ccc3c(c2)C(O)CC(C2CCOCC2)O3)cc1 (stereo unspecified)
27.1

Consider the compound CCc1ccc(N(CC(C)C)S(=O)(=O)c2ccc3c(c2)C(O)CC(C2CCOCC2)O3)cc1 (stereo unspecified) and give its recorded CLint scaled.
330

Let me know recorded CLint scaled for `CCc1ccc(N(CC(C)C)S(=O)(=O)c2ccc(OCC3CCOCC3)c(CO)c2)cc1` , thanks.
1610

====

# assay-text: Metabolic stability in human liver microsomes assessed as half life incubated for 5 to 30 mins by HPLC-MS/MS analysis
# Format: ADME, Microsome
# experimental-setup: microsomes, time 5-30 min
quantity-measured: t1/2 (min)
Return type: number; implicit unit min.

compound	quantity-measured	reported-value
CCc1ccc(N(C2CCC2)S(=O)(=O)c2ccc3c(c2)C(O)CC(C2CCOCC2)O3)cc1 (stereo not given)	t1/2	49
CCc1ccc(N(CC(C)C)S(=O)(=O)c2ccc(OCC3CCOCC3)c(CO)c2)cc1	t1/2	0.8
CC(C)CN(c1cc2ccccc2s1)S(=O)(=O)c1ccc2c(c1)C(O)CC(C1CCOCC1)O2 (stereo not given)	t1/2	25.2
CC(C)CN(c1ccc(C#N)cc1)S(=O)(=O)c1ccc2c(c1)C(O)CC(C1CCOCC1)O2 (stereo not given)	t1/2	0.8

--- query ---
Give the measured t1/2 for O=S(=O)(c1ccc2c(c1)C(O)CC(C1CCOCC1)O2)N1CCCC1c1ccccc1C(F)(F)F (stereo not given)
7.6

====

Reported logD is given for each of the following compounds.
# assay-text: Lipophilicity, log D of the compound at pH 7.4
# Format: physicochemical
# experimental-setup: buffer

Solved entries:
compound	quantity-measured	reported-value
CCc1ccc(N(CC(C)C)S(=O)(=O)c2ccc3c(c2)C(O)C[C@@H](C2CCOCC2)O3)cc1 (stereo partly drawn)	logD	4.12
CCc1ccc(N(CC(C)C)S(=O)(=O)c2ccc(OCC3CCOCC3)c3c2CCCC3O)cc1 (stereo not drawn)	logD	4.95
CCc1ccc(N(CC(C)C)S(=O)(=O)c2ccc3c(c2)C(O)CC(C2CCN(C)CC2)O3)cc1 (stereo not drawn)	logD	2.67
CC(C)CN(C1CCc2ccc(F)cc21)S(=O)(=O)c1ccc2c(c1)C(O)CC(C1CCOCC1)O2 (stereo not drawn)	logD	3.94
CC(C)CN(Cc1ccccc1C(F)(F)F)S(=O)(=O)c1ccc2c(c1)C(O)CC(C1CCOCC1)O2 (stereo not drawn)	logD	4.23

Give me measured logD, please, for this compound: CCc1ccc(N(CC(C)C)S(=O)(=O)c2ccc(OCC3CCOCC3)c3c2CCC3O)cc1 (stereo not drawn)
4.55

State, in one line, measured logD of Cc1cc(C(O)(C(F)(F)F)C(F)(F)F)ccc1N(CC(C)C)S(=O)(=O)c1ccc2c(c1)C(O)CC(C1CCOCC1)O2 (stereo not drawn)
4.37

Dear colleague, please send me the reported logD for Cc1ccc(N(CC(C)C)S(=O)(=O)c2ccc3c(c2)C(O)CC(C2CCOCC2)O3)c(C)c1 (stereo not drawn) when you can.
4.19

====

The reader will find reported logD values listed item by item below.
# assay-text: Lipophilicity, log D of the compound at pH 7.4
# Assay type: physicochemical
# experimental-setup: buffer
The response must contain the number and no unit.

Consider the reported logD for these compounds:
compound	logD
CCc1ccc(NS(=O)(=O)c2ccc3c(c2)C(O)CC(C2CCOCC2)O3)cc1 (stereo not given)	2.59
CCc1ccc(N(Cc2ccccc2)S(=O)(=O)c2ccc3c(c2)C(O)CC(C2CCOCC2)O3)cc1 (stereo not given)	4.68
CC(C)CN(c1ccccc1F)S(=O)(=O)c1ccc2c(c1)C(O)CC(C1CCOCC1)O2 (stereo not given)	3.39
CCc1ccc(N(CC(C)C)S(=O)(=O)c2ccc3c(c2)C(O)CC(C2CCNCC2)O3)cc1 (stereo not given)	1.04

Now for a further compound.
Tell me logD reported for CCc1ccc(N(CC(C)C)S(=O)(=O)c2ccc3c(c2)C(O)CC(C2CCN(C(=O)C4CCCC4)CC2)O3)cc1 (stereo not given)
5.04

====

# assay-text: Cmax in mouse at 1 mg/kg, po measured at 5 to 1440 mins by LC-MS analysis
# Type: ADME, organism-based
# Set-up: time upper 1440 min, time lower 5 min, dose 1 mg/kg, route po
# experimental-setup: in vivo
quantity-measured: Cmax (µg/mL)
All answers are understood in µg/mL, so give the number only.

Given the compound CCc1ccc(N(C2CCC2)S(=O)(=O)c2ccc3c(c2)C(O)CC(C2CCOCC2)O3)cc1 (stereo unspecified) , write its reported Cmax.
0.094

====

# assay-text: AUC (0 to infinity) in mouse at 0.3 mg/kg, iv measured at 2 to 1440 mins by LC-MS analysis
# Assay type: ADME, organism-based
# Design: dose 0.3 mg/kg, time 2-1440 min, route iv
# experimental-setup: in vivo
quantity-measured: AUC(0-inf)

Give reported AUC(0-inf) value for CCc1ccc(N(C2CCC2)S(=O)(=O)c2ccc3c(c2)C(O)CC(C2CCOCC2)O3)cc1 (stereo unspecified)
163 ng·h/mL

====

# assay-text: Metabolic stability in human liver microsomes assessed as parent compound remaining measured at 60 mins by HPLC-MS/MS analysis
# Assay type: ADME, Microsome
# experimental-setup: 1 h
quantity-measured: Stability
Include the unit after the number when you answer.

Using the record for CC(C)CN(c1ccc(C#N)cc1)S(=O)(=O)c1ccc2c(c1)C(O)CC(C1CCOCC1)O2 (stereo not given) , state its measured Stability.
0.3%

State its Stability: CC(C)CN(c1cc2ccccc2s1)S(=O)(=O)c1ccc2c(c1)C(O)CC(C1CCOCC1)O2 (stereo not given)
28.5%

Determine from records and report Stability for `CCc1ccc(N(CC(C)C)S(=O)(=O)c2ccc(OCC3CCOCC3)c(CO)c2)cc1`
0.2%

Please look at this compound and report its Stability: CCc1ccc(N(C2CCC2)S(=O)(=O)c2ccc3c(c2)C(O)CC(C2CCOCC2)O3)cc1 (stereo not given)
45.1%

Fill in reported Stability for this entry: O=S(=O)(c1ccc2c(c1)C(O)CC(C1CCOCC1)O2)N1CCCC1c1ccccc1C(F)(F)F (stereo not given)
5.2%

====

# assay-text: Half life in mouse at 1 mg/kg, po measured at 5 to 1440 mins by LC-MS analysis
# Type: ADME, organism-based
# experimental-setup: in vivo, time 5-1440 min
quantity-measured: half-life
Field: value (include unit after the number)

Hello, please tell me recorded half-life for this one: CCc1ccc(N(C2CCC2)S(=O)(=O)c2ccc3c(c2)C(O)CC(C2CCOCC2)O3)cc1 (stereo unspecified)
1.32 h
